# method: Half life in human liver microsomes
# Type: ADME, Microsome
parameter.measured: half-life (min)

Example molecules with recorded half-life:
chemical.string: COc1cccc(CNC(=O)c2[nH]c3cc(-c4cn[nH]c4)ccc3c2CN2CCCNCC2)c1
half-life [min]: 50

chemical.string: COc1cccc(CN(CCN(C)C)C(=O)c2cn(C)c3cc(-c4cn[nH]c4)ccc23)c1
half-life [min]: 8

chemical.string: COc1cccc(CNC(=O)c2[nH]c3cc(-c4cn[nH]c4)ccc3c2CN2CCN(C)CC2)c1
half-life [min]: 1

chemical.string: COc1cccc(CN(CCN2CCCC2)C(=O)c2cc3ccc(-c4cn[nH]c4)nc3[nH]2)c1
half-life [min]: 21

chemical.string: COc1cccc(CNC(=O)c2[nH]c3nc(-c4cn[nH]c4)ccc3c2CN2CCN(C)CC2)c1
half-life [min]: 1

1. COc1cccc(CNC(=O)c2cc3ccc(-c4cn[nH]c4)nc3n2CCN(C)C)c1
2. COc1cccc(CN(C)C(=O)c2cn(C)c3cc(-c4cn[nH]c4)ccc23)c1
Lookup: Lab notebook, comparison: 1 versus 2 , higher half-life goes to which? Which one? Tell me its label.
Found: 1
(1: 17 min, 2: 4 min)
